These data points were gathered from patent US12065421B2.

Quick reference: pIC50 of the listed items.
- Target or system: NanoBiT® HiBiT non-luminescent peptide and LgBiT non-luminescent polypeptide (HiBiT/LgBiT bioluminescent complex) (Oplophorus gracilirostris, UniProt Q9GV45, A31E/A60N/A81I/C191F/D135N/E192K/F58L/F95D/G184S/G42A/G62A/G78A/G94A/G98A/H120P/I103V/I117V/I134L/K70R/L176M/L195S/L54V/L73R/L99Q/M102E/N171T/N193K/P142E/Q151K/Q38E/Q45L/T186S/V71I/Y165I)
- Construct: fused on or other part: N-terminal Met-Val on LgBiT in place of the signal peptide (residues 1-27); The chain is split between residues 184 and 185 into LgBiT and the 11-residue HiBiT peptide (residues 185-195); C-terminal A196 is absent
- Sequence (Q9GV45 other isoform, or with tags, fused parts or gaps with the stated changes): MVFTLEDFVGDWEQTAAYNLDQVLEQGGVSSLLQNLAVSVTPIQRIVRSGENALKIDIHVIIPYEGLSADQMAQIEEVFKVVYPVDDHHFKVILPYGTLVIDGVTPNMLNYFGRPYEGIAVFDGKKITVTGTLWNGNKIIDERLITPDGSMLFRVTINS
- Assay method text: biochemical
pIC50: −log10 of the molar value.

- Chem smiles: "Cc1ccc(NC(=O)c2ccccc2NS(=O)(=O)c2cccc(C#CCO)c2)cc1"
  pIC50: 6.15
- Chem smiles: "Cc1ccc(S(=O)(=O)Nc2ccccc2C(=O)NC2CCCCC2)cc1"
  pIC50: 6.68
- Chem smiles: "Cc1ccc(S(=O)(=O)Nc2ccccc2C(=O)Nc2ccccc2Br)cc1"
  pIC50: 6.70
- Chem smiles: "CCCCc1cccc(NC(=O)c2ccccc2NS(=O)(=O)c2ccc(C)cc2)c1"
  pIC50: 6.89
- Chem smiles: "CCCCc1ccc(NS(=O)(=O)c2ccc(C)cc2)c(C(=O)Nc2cc3ccccc3s2)c1"
  pIC50: 6.20
- Chem smiles: "Cc1ccc(S(=O)(=O)Nc2ccccc2C(=O)Nc2cccc(C)c2)cc1"
  pIC50: 7.06
- Chem smiles: "Cc1cccc(S(=O)(=O)Nc2ccccc2C(=O)Nc2cc3ccccc3s2)c1"
  pIC50: 7.89
- Chem smiles: "Cc1ccc(S(=O)(=O)Nc2ccccc2C(=O)Nc2ccccc2)cc1"
  pIC50: 7.03
- Chem smiles: "Cc1ccc(S(=O)(=O)Nc2ccccc2C(=O)Nc2sc3c(c2C#N)CCC3)cc1"
  pIC50: 7.37
